Known z-score of a selection of compounds
- MEASUREMENT NOTES: mitochondrial membrane potential change in A549 cells, profiling panel, cell-based, JC-1 fluorescence, basal, 24 h, 100 nL (AID 1138);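 also: A549 lung adenocarcinoma cells under basal conditions with no added stimulus; test concentration not given here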
- ASSAY SETUP: higher = more signal
Returns: the value as a bare number; no unit string appended.

Give its z-score value. Item: `CCN1C(=O)[C@H]2[C@H]3[C@H](O)[C@H](O)CC(=O)[C@H]3CC[C@H]2C1=O`
-0.335

Give its z-score value. Item: `COC(=O)CC=C[C@@H](C)[C@@H](C=NO[C@@H](C)c1cn([C@H](CO)Cc2ccccc2)nn1)OC`
0.269

Give its z-score value. Item: `CC(C)CON=C1C[C@@H](O)[C@@H](O)[C@@H]2[C@@H]3C(=O)N(c4ccc(F)cc4F)C(=O)[C@@H]3CC[C@H]12`
-0.229

Give its z-score value. Item: `CC(=O)Nc1ccc([C@@H]2N[C@H](C(=O)O)CC[C@H]2C)cc1`
2.05

Give its z-score value. Item: `Cn1c(=O)n2n(c1=O)[C@H]1[C@H](O)[C@@H]3O[C@@H]3C(=NOCc3ccccc3)[C@H]1CC2`
0.874

Give its z-score value. Item: `COC(=O)CC=C[C@@H](C)[C@H](OCc1cccc(-c2ccccc2)c1)C1CCCCC1`
0.237

Give its z-score value. Item: `COc1ccc(O[C@H]2C=C[C@@H](c3ccccc3)O[C@@H]2CON=C(C)CCN2CCc3nc(-c4ccccc4)c(-c4ccccc4)cc3C2)cc1`
1.87

Give its z-score value. Item: `COc1cccc([C@H]2Oc3ccc(OC)cc3C(=NOC[C@@H](O)COCc3ccco3)[C@@H]2O)c1`
-0.843

Give its z-score value. Item: `CCc1cc2c(nc1CC)CCN(CCC(C)=NOC[C@H]1O[C@H](c3ccccc3)C=C[C@@H]1Oc1ccc(OC)cc1)C2`
1.51

Give its z-score value. Item: `C[C@@H]1C=CCC(=O)OC[C@H]2O[C@@H](C=C[C@@H]2O)[C@H](C)C=CCC(=O)OC1`
2.16

Give its z-score value. Item: `CO[C@@H]1COC(=O)[C@H](CCSC)NC(=O)CC=C[C@@H](C)COC(=O)CCC[C@H]1C`
0.803

Give its z-score value. Item: `CC(C)CON=C1C[C@@H](O)[C@@H](O)[C@@H]2[C@@H]3C(=O)N(Cc4ccc5c(c4)OCO5)C(=O)[C@@H]3CC[C@H]12`
-0.72

Give its z-score value. Item: CC(=O)OC[C@H]1OC(ON=CC[C@@H]2C=C[C@H](OC(C)=O)[C@@H](COC(C)=O)O2)[C@H](OC(C)=O)[C@@H](OC(C)=O)[C@@H]1OC(C)=O (stereo partly specified)
-0.99

Give its z-score value. Item: `CO[C@@H]1COC(=O)CC=C[C@@H](C)[C@@H]2C=C[C@H](O)[C@@H](COC(=O)CC=C[C@H]1C)O2`
1.81

Give its z-score value. Item: CCOC(=O)[C@H](CC(C)C)NC(=O)CCC1CC(OC(=O)NCCc2ccc(F)cc2)CC2(CCCC(COC(=O)NCC3CCCCC3)O2)O1 (stereo partly specified)
-0.506

Give its z-score value. Item: `COc1ccc(O[C@H]2C=C[C@@H](c3ccccc3)O[C@@H]2CON=C(C)C)cc1`
-0.541
